B1: Activity-dependent neuroprotector homeobox protein, residues 770 to 810; numbered along this chain, Q9H2P0 (parent)
chain: FLTKYFNKQPYPTRREIEKLAASLWLWKSDIASHFSNKRKK

Variants of: B1
Experiment: abundance fitness (aPCA) (normalised: wild type 0, dead -1); higher = more abundant; growth selection in yeast, the domain comes from the species named
Details: Homo sapiens
Classify as follows. Reported abundance fitness greater than or equal to -0.06: condition met. Reported abundance fitness below: condition not met.

Check out these entries, answers already filled in.
1) FLTKYFNKQPYPTRREIEKLAASLMLWKSDIASHFSNKRKK; condition met
2) FLTKYFNKQPYPTRREIEWLAASLWLWKSDIASHFSNKRKK; condition not met

Does the reported abundance fitness for `FRTKYFNKQPYPTRREIEKLAASLWLWKSDIASHFSNKRKK` fall at or above the -0.06 mark?
condition not met

Similarly, `FLTKYFNKQIYPTRREIEKLAASLWLWKSDIASHFSNKRKK` ?
condition not met

This collection of values is drawn from the Human Domainome abundance scans (Beltran et al. 2025).
